Data credit: PubChem BioAssay

experiment: ATP-based viability of Huh7 replicon cells – cell-based, CellTiter-Glo luminescence, basal, 48 h, cytotoxicity control for HCV replication inhibitor project, primary screen (AID 1143); details: higher = more signal, called active from +8 up or from −8 down;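 further: Huh7 hepatoma cells carrying a hepatitis C replication reporter with no stimulus; test concentration not given here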
Please go through the items and note down their z-score.
Numbers only.

Worked cases, answers included:
{"compound": "CC(C)(C)OC(=O)CC[C@]1(C(=O)NCC(O)CO)N=C(c2ccc(OCCCO)cc2)O[C@H]1c1ccccc1CN=[N+]=[N-] (some centres not stated)", "z-score": 0.168}
{"compound": "[N-]=[N+]=NCc1ccccc1[C@@H]1OC(c2ccc(OCCCO)cc2)=N[C@]1(Cc1ccccc1N=[N+]=[N-])C(N)=O", "z-score": -1.91}

I need z-score for every entry listed below, if you could help.
1. CCCNC(=O)[C@@]1(C)c2ccccc2C(=O)N(Cc2cc(F)cc(C(F)(F)F)c2)[C@H]1c1ccc(CO)cc1
2. Cc1cccc(/C=C/C=O)c1
3. CO[C@H]1O[C@H](CO)[C@@H](OC(=O)Nc2ccccc2-c2ccccc2)[C@H](OC(=O)Nc2ccccc2-c2ccccc2)[C@H]1OC(=O)Nc1ccccc1-c1ccccc1
4. [N-]=[N+]=NCc1ccccc1C[C@]1(C(N)=O)N=C(c2ccc(OCCCO)cc2)O[C@H]1c1ccccc1N=[N+]=[N-]
5. Cc1ccc(S[C@]2(C(=O)NCc3ccccc3)CC(=O)N(Cc3cc(C(F)(F)F)cc(C(F)(F)F)c3)[C@@H]2c2ccc(CO)cc2)cc1
6. [N-]=[N+]=NCc1ccccc1C[C@]1(C(=O)NCCN2CCOCC2)N=C(c2ccc(OCCCO)cc2)O[C@H]1c1ccccc1CN=[N+]=[N-]
7. COCCOC(=O)N1C(=O)[C@@]2(c3cc(C#CC4=CCCCC4)ccc31)[C@H](c1ccc(OCCO)cc1)N1[C@H](c3ccccc3)[C@H](c3ccccc3)OC(=O)[C@H]1[C@@H]2C(=O)Nc1nc2ccccc2s1

## Result
1. -3.38
2. 0.585
3. -3.73
4. -1.84
5. -0.0639
6. -6.14
7. -3.52

I need z-score for every entry listed below, if you could help.
1. OCCCc1cc[n+](Cc2cccc(OC(F)(F)F)c2)cc1
2. CC(C)CNC(=O)[C@@]1(C)c2ccccc2C(=O)N(C(C)C)[C@H]1c1ccc(CO)cc1

## Result
-1.79
1.09

I need z-score for every entry listed below, if you could help.
1. O=C1NC(=O)C2C1C=CC(C(O)c1cccs1)N2Nc1ccccn1 (configuration not stated)
2. C=C(C(=O)CC[C@H](OC(=O)c1cccnc1)c1ccccc1OCCO)C(C)C
3. CCOC(=O)C1=CC[C@@H](c2cccc(Cl)c2)N(S(=O)(=O)c2ccc(C)cc2)[C@H]1c1ccc(C#N)cc1
4. COC(=O)[C@@]1(Cc2ccc(OC)cc2)[C@H]2c3cc(C(=O)N4CCCC4)n(CCc4ccccn4)c3C[C@H]2CN1C(=O)c1ccccc1
5. CC(=O)N1Cc2ccccc2C[C@@]2(N=C(c3ccc(OCCCO)cc3)O[C@H]2c2ccccc2)C1=O

## Result
1. 0.847
2. -1.13
3. -1.1
4. -0.784
5. -4.03

* * *

assay: growth modulation of vineyard yeast isolate – strain RM11-1a, OD600, basal, 24 h, primary screen (AID 1177);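 further: cultures grown under basal conditions with no added stressor; test concentration not given here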; conditions: S. cerevisiae RM11-1a growth, OD600, 24 h; higher = more signal, called active from +8 up or from −8 down
Please go through the items and note down their z-score.
One number for each entry.

{"molecule": "Cc1ccc(C(C)CC(O)C2C=CC3C(=O)NC(=O)C3N2Nc2ccccn2)o1 (centres undefined)", "z-score": 0.735}
{"molecule": "COc1ccc([Si](C)(C)[C@@H]2[C@@H](CCO)O[C@]3(C(=O)N(Cc4cccc(N5CCCCC5=O)c4)c4ccccc43)[C@H]2C)cc1", "z-score": 5.19}
{"molecule": "COC(=O)[C@@]1(Cc2ccccc2)[C@H]2c3cc(C(=O)N(C)C)n(Cc4ccccc4)c3C[C@H]2CN1C(=O)c1ccccc1", "z-score": 1.6}
{"molecule": "COC(=O)C(CC#Cc1ccc2c(c1)[C@]1(C(=O)N2)[C@H](C(=O)N2CCCCCCC2)[C@H]2C(=O)O[C@H](c3ccccc3)[C@H](c3ccccc3)N2[C@@H]1c1ccccc1OCCO)C(=O)OC", "z-score": 0.0478}
{"molecule": "C=C(CCCC)C(=O)CC[C@@H](OC(=O)c1ccccc1-c1ccccc1C(=O)O)c1ccc(CO)o1", "z-score": -0.279}

I need z-score for every entry listed below, if you could help.
1. CCOC(=O)C1=CC[C@@H](c2cccc(Cl)c2)N(S(=O)(=O)c2ccc(C)cc2)[C@H]1c1ccc(C#N)cc1
2. Cc1ccc(S[C@]2(C(=O)NCCCN(C)C)CC(=O)N(Cc3ccccc3)[C@@H]2c2ccc(CO)cc2)cc1
3. COC(=O)c1c2oc(c1C(=O)OC)C(=O)N[C@H](Cc1ccccc1)Cn1nncc1C1(CCCCC1)NC(=O)N[C@H](CO)CC2
4. C=CCC(OC(C)=O)[C@@H]1[C@@H](N(Cc2cc3ccccc3o2)C(=O)c2cccc3ccccc23)c2cc(OCCCO)ccc2N1C(=O)Cc1ccc(OC)cc1 (some centres undefined)
5. C=CC[C@@]1(C(=O)OC)N=C(c2ccc(OCCCO)cc2)O[C@@H]1c1ccccc1CN=[N+]=[N-]
6. C=C(COC)C(=O)CC[C@@H](OC(=O)c1ccccc1-c1ccccc1C(=O)O)c1ccc(CO)o1

## Result
1: 0.834; 2: -0.358; 3: 0.416; 4: 0.196; 5: -0.712; 6: -21.6

* * *

test: S. pombe growth modifiers, basal conditions – strain 972, OD600, 24 h, no modulator, primary screen (AID 1090);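 further: basal condition with compound alone and no growth modifier present; test concentration not given here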; details: S. pombe 972 growth, higher = more signal, called active from +8 up or from −8 down
The source made the active and inactive calls.
measured.metric: z-score

Worked cases, answers included:
{"molecule": "COCCCNC(=O)[C@@]1(C)c2ccccc2C(=O)N(Cc2ccccc2)[C@H]1c1ccc(CO)cc1", "z-score": "-1.31 (inactive)"}
{"molecule": "C=CCC(OC(C)=O)[C@@H]1[C@@H](N(Cc2ccc(-c3cccc(C(F)(F)F)c3)o2)C(=O)Cc2ccc(OC)cc2)c2cc(OCCCO)ccc2N1C(=O)Cc1ccc(OC)cc1 (some centres undefined)", "z-score": "-0.566 (inactive)"}
{"molecule": "COCCCNC(=O)[C@@]1(Cc2ccccc2I)c2ccccc2C(=O)N(Cc2ccccc2)[C@H]1c1ccc(CO)cc1", "z-score": "0.512 (inactive)"}
{"molecule": "COc1ccc(C#Cc2ccc3c(c2)[C@]2(C(=O)N3)[C@H](C(=O)N3CCN(c4ncccn4)CC3)[C@H]3C(=O)O[C@H](c4ccccc4)[C@H](c4ccccc4)N3[C@@H]2c2ccc(O)cc2)cc1", "z-score": "0.86 (inactive)"}

I need z-score for every entry listed below, if you could help.
1. CC(C)C(=C=CC[C@H](O)c1ccccc1OCCO)CCO
2. COc1ccc(CCNC(=O)[C@@]2(C)c3ccccc3C(=O)N(Cc3ccccc3)[C@H]2c2ccc(CO)cc2)cc1
3. C=CCNC(=O)[C@@H]1[C@H]2C(=O)O[C@H](c3ccccc3)[C@H](c3ccccc3)N2[C@H](c2ccccc2OCCO)[C@@]12C(=O)N(C(=O)OCCOC)c1ccc(C#CCC(C(=O)OC)C(=O)OC)cc12
4. C=C(C)[C@@H]1CC=C(C(O)C2C=CC3C(=O)N(Cc4ccccc4)C(=O)C3N2n2cnnc2)CC1 (some centres undefined)

## Result
-0.39 (inactive)
-1.1 (inactive)
2.06 (inactive)
0.312 (inactive)

* * *

Please go through the items and note down their composite Z-score.
assay: probe aXIP binding to arrayed compounds – biochemical, NeuroSMM set, 635/667 nm fluorescence, primary screen (AID 1119); conditions: small-molecule microarray, higher = more signal, called active from +8 up or from −8 down;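 further: probe is the protein aXip251-270 applied at 1 µg/mL to compound-printed slides; binding of probe to printed compounds measured as 667 nm fluorescence plus signal to noise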
Give bare numbers.

{"compound": "CCCCC(=C=CC[C@H](O)c1ccccc1OCCO)C[C@H](O)c1cc(Cl)cc(Cl)c1O", "composite Z-score": 0.45}
{"compound": "O=C1C2C=CC(C(O)c3ccc(Br)cc3)N(n3cnnc3)C2C(=O)N1Cc1ccccc1 (configuration not stated)", "composite Z-score": -1.02}

I need composite Z-score for every entry listed below, if you could help.
1. O=C1O[C@@H](c2ccccc2)[C@@H](c2ccccc2)N2[C@@H](c3ccc(O)cc3)[C@]3(C(=O)Nc4ccc(C#CCCO)cc43)[C@@H](C(=O)N3CCCCCCC3)[C@H]12
2. COc1ccc([Si](C)(C)[C@H]2[C@H](CC(=O)N3Cc4ccccc4C[C@H]3CO)O[C@@]3(C(=O)N(Cc4cccc(I)c4)c4ccccc43)[C@@H]2C)cc1
3. O=P(NCC1(CC2(c3ccccc3)CO2)CC1)(c1ccccc1)c1ccccc1 (configuration not stated)
4. COC(=O)c1c2oc(c1C(=O)OC)C(=O)N[C@H](Cc1ccccc1)Cn1nncc1C1(CCCCC1)NC(=O)N[C@H](CO)CC2
5. CC(C)N1C(=O)c2ccccc2[C@](C)(C(=O)NC2CC2)[C@@H]1c1ccc(CO)cc1

## Result
1: 5.37; 2: 0.58; 3: -0.187; 4: 0.699; 5: -0.116
